Reported chromatographic logD is given for each of the following compounds.
Assay: CHI Log D procedure
Format: physicochemical
Conditions: pH 7.4, CHI Log D
// print number alone

# compound, chromatographic logD
measured = [
    ("COCCOCCC(=O)NCCCC[C@H](NC(=O)[C@H](CCC(N)=O)NC(=O)[C@H](Cc1csc2ccccc12)NC(=O)[C@H](Cc1ccsc1)NC(=O)[C@]12CCN(C1)C(=O)OCCCC=CCCCC1(CCCC=CC[C@]3(CCCN3C(C)=O)C(=O)N[C@@H](CC(=O)O)C(=O)N[C@@H](CC(C)(C)C)C(=O)N1)C(=O)N[C@@H](CC(=O)O)C(=O)N[C@@H](CC(=O)O)C(=O)N[C@@H](C)C(=O)N[C@@H](C)C(=O)N[C@@H](Cc1ccccc1)C(=O)N[C@@H](CC(N)=O)C(=O)N2)C(N)=O (some centres unmarked)", 1.82),
]

Request: Give reported chromatographic logD value for CC(=O)N1CCC[C@]12CC=CCCCC1(CCCC=CCCCCCC[C@@](C)(C(=O)N[C@@H](Cc3ccccc3)C(=O)N[C@@H](Cc3csc4ccccc34)C(=O)N[C@@H](CCC(N)=O)C(N)=O)NC(=O)[C@H](C(C)C)NC(=O)[C@H](Cc3ccccc3)NC(=O)[C@H](C)NC(=O)[C@H](C)NC(=O)[C@H](CC(=O)O)NC(=O)[C@H](CC(=O)NC(C)C)NC1=O)NC(=O)[C@H](C)NC(=O)[C@H](CC(=O)O)NC2=O (some centres unmarked)
Result: 2.86

Request: Let me know recorded chromatographic logD for CC(=O)N1CCC[C@]12CC=CCCCC1(CCCC=CCCCOC(=O)N3CC[C@@](C(=O)N[C@@H](Cc4ccccc4Cl)C(=O)N[C@@H](Cc4csc5ccccc45)C(=O)N[C@@H](C(N)=O)[C@H](C)O)(C3)NC(=O)[C@H](CC(N)=O)NC(=O)[C@H](Cc3ccccc3)NC(=O)[C@H](C)NC(=O)[C@H](C)NC(=O)[C@H](CC(=O)O)NC(=O)[C@H](CC(=O)O)NC1=O)NC(=O)[C@H](CC(C)(C)C)NC(=O)[C@H](CCC(=O)O)NC2=O (some centres unmarked) , thanks.
Result: 2.36

Request: Specify chromatographic logD for CC(=O)N1CCC[C@]12CC=CCCCC1(CCCC=CCCCOC(=O)N3CC[C@@](C(=O)N[C@@H](Cc4ccccc4Cl)C(=O)N[C@@H](Cc4csc5ccccc45)C(=O)N[C@@H](Cc4c[nH]cn4)C(N)=O)(C3)NC(=O)[C@H](CC(N)=O)NC(=O)[C@H](Cc3ccccc3)NC(=O)[C@H](C)NC(=O)[C@H](C)NC(=O)[C@H](CC(=O)O)NC(=O)[C@H](CC(=O)O)NC1=O)NC(=O)[C@H](CC(C)(C)C)NC(=O)[C@H](CC(=O)O)NC2=O (some centres unmarked) and stop.
Result: 2.29

Request: Indicate the recorded chromatographic logD value for this compound: CC(=O)N1CCC[C@]12CC=CCCCC1(CCCC=CCCCCCC[C@@](C)(C(=O)N[C@@H](Cc3ccccc3)C(=O)N[C@@H](Cc3c[nH]c4ccccc34)C(=O)N[C@@H](C)C(N)=O)NC(=O)[C@H](C(C)C)NC(=O)[C@H](Cc3ccccc3)NC(=O)[C@H](C)NC(=O)[C@H](C)NC(=O)[C@H](CCC(=O)O)NC(=O)[C@H](CC(=O)O)NC1=O)NC(=O)[C@H](C)NC(=O)[C@H](CC(=O)O)NC2=O (some centres unmarked)
Result: 2.18

Attribution: patent US20240116985A1
